system: BRCA2-deficient PE01 ovarian cancer cells (BRCA2-); test: Cell viability assay (PrestoBlue, 72 h), PE01; assay type: cell-based; details: Homo sapiens, estimated from the graphs
pEC50 values, listed per item
Scale for pEC50: -log10 of concentration given in mol/L; no unit attached.

A selection of reference data follows.
{"Molecule": "CCN(CC)CCCC(C)Nc1c2ccc(Cl)cc2nc2ccc(OC)cc12 (stereo not drawn)", "pEC50": 5.42}
{"Molecule": "COc1cccc2c1C(=O)c1c(O)c3c(c(O)c1C2=O)C[C@@](O)(C(=O)CO)C[C@@H]3O[C@H]1C[C@H](N)[C@H](O)[C@H](C)O1", "pEC50": 7.30}

Exercise: What does the data say about its pEC50? Entry: O=C1c2c(O)ccc(O)c2C(=O)c2c(NCCNCCO)ccc(NCCNCCO)c21
Solution: 7.00

====

Molecular target: RPA:RAD52 protein-protein interaction (Homo sapiens, UniProt P43351)
Sequence (P43351 1-418): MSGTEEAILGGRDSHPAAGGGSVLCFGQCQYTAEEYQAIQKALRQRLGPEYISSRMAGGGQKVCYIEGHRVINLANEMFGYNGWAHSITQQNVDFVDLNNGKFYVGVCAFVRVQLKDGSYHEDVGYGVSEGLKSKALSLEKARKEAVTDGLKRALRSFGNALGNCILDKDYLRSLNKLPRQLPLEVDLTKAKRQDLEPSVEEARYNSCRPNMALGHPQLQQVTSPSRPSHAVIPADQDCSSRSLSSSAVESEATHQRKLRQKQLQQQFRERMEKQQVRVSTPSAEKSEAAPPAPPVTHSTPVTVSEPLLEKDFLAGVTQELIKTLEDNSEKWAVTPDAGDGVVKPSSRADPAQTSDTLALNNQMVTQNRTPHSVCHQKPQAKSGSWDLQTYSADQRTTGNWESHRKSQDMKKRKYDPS
Assay: FluorIA (Fluorescence-based protein-protein Interaction Assay), GFP-RAD52 binding to plate-coated RPA
Details: polynomial curve fitting; 15 dose concentrations 0.03–500 μM, triplicate; RAD52(1–303) positive control; read-out: EC50 in FluorIA (inhibition of RPA:RAD52 PPI)
Measured property: pEC50
# pEC50 is unitless: minus log10 of the molar concentration; print number only

{"Compound": "O=C1c2c(O)ccc(O)c2C(=O)c2c(NCCNCCO)ccc(NCCNCCO)c21", "pEC50": 4.53}

Exercise: Looking for the measured pEC50 of CCN(CC)CCCC(C)Nc1c2ccc(Cl)cc2nc2ccc(OC)cc12 (stereo not shown) , can you help?
Solution: 4.01

Exercise: Given the compound COc1cccc2c1C(=O)c1c(O)c3c(c(O)c1C2=O)C[C@@](O)(C(=O)CO)C[C@@H]3O[C@H]1C[C@H](N)[C@H](O)[C@H](C)O1 , what is its reported pEC50?
Solution: 5.00

Exercise: pEC50 for Nc1cc(S(=O)(=O)O)cc2cc(S(=O)(=O)O)cc(O)c12 ?
Solution: 3.98
